molecular target: T1, monkey CTLA-4, full length, on transfected HEK293 cells (monkey); experiment: FACS, monkey CTLA-4 expressing cells
T1 construct: whole, on cells; also called cCTLA-4; HEK293-cCTLA-4
MFI at 40 nM overview
Simply state the number, no unit and no words.

Please review the entries below; each comes with its answer.
binder: 97A8D1 fully human CTLA-4 antibody (human IgG1, kappa) (antibody, V domains shown, also called mAb49; mAb049) VH: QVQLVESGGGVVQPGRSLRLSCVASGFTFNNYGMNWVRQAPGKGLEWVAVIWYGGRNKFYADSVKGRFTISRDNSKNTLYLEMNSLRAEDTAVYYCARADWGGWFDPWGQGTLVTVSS VL: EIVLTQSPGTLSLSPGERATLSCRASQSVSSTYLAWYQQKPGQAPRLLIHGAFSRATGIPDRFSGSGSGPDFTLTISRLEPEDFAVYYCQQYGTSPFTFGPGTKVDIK
MFI at 40 nM: 910
--
binder: 40C4C6 fully human CTLA-4 antibody (human IgG1, kappa) (antibody, V domains shown, also called mAb09; mAb009) VH: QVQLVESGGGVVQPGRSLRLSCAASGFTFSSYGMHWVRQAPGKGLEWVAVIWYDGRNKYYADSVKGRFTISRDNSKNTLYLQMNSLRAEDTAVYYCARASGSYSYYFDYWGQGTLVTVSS VL: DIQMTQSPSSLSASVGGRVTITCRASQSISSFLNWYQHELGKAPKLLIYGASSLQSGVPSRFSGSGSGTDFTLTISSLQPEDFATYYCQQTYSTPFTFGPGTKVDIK
MFI at 40 nM: 626
--
binder: 92C8B6 fully human CTLA-4 antibody (human IgG1, kappa) (antibody, V domains shown, also called mAb42; mAb042) VH: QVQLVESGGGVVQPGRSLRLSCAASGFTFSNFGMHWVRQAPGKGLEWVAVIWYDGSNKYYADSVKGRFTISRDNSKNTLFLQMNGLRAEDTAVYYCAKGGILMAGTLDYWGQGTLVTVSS VL: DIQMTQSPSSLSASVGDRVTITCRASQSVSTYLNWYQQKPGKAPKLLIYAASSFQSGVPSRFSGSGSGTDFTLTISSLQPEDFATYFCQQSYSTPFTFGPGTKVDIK
MFI at 40 nM: 800

Moving on to the next binder.
Could you tell me which MFI at 40 nM is on file for 31C12F3 fully human CTLA-4 antibody (human IgG1, kappa) (antibody, V domains shown, also called mAb010) VH: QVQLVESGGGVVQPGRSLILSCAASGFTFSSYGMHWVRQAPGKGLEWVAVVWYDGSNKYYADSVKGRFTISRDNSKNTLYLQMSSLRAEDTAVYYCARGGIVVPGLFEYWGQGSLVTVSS VL: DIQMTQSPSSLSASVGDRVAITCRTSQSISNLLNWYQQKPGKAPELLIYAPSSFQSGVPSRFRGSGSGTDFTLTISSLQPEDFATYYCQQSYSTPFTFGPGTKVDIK ?
712
